B1: SPACA3 (parent)
chain: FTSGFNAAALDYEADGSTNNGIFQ

Variants of: B1
PROTOCOL NOTES: protein stability index of a GFP-peptide fusion (GPS, HEK-293T) (PSI 1-6); higher = more stable;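 also: lentivirally expressed fusions sorted by FACS into six bins by GFP to DsRed ratio, PSI derived from sequencing read proportions per bin multiplied by bin number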
APPLIED CONDITIONS: c terminus: a fixed tail appended
Is protein stability index at least 2? Then Fulfilled. If not, Not fulfilled.

QUERY: State whether the measured protein stability index reaches 2, counting equality as reaching it, for "A9T"
RESULT: Not fulfilled

QUERY: State whether the measured protein stability index reaches 2, counting equality as reaching it, for "F1D"
RESULT: Fulfilled

QUERY: State whether the measured protein stability index reaches 2, counting equality as reaching it, for "L10N"
RESULT: Fulfilled

QUERY: State whether the measured protein stability index reaches 2, counting equality as reaching it, for "F5N"
RESULT: Fulfilled

QUERY: State whether the measured protein stability index reaches 2, counting equality as reaching it, for "F5D"
RESULT: Fulfilled

QUERY: State whether the measured protein stability index reaches 2, counting equality as reaching it, for "N19M"
RESULT: Fulfilled

QUERY: State whether the measured protein stability index reaches 2, counting equality as reaching it, for "D15E"
RESULT: Fulfilled

QUERY: State whether the measured protein stability index reaches 2, counting equality as reaching it, for "N20R"
RESULT: Not fulfilled

QUERY: State whether the measured protein stability index reaches 2, counting equality as reaching it, for "S3I"
RESULT: Not fulfilled

QUERY: State whether the measured protein stability index reaches 2, counting equality as reaching it, for "I22Q"
RESULT: Fulfilled

QUERY: State whether the measured protein stability index reaches 2, counting equality as reaching it, for "G21P"
RESULT: Fulfilled

QUERY: State whether the measured protein stability index reaches 2, counting equality as reaching it, for "N6K"
RESULT: Fulfilled

QUERY: State whether the measured protein stability index reaches 2, counting equality as reaching it, for "D15V"
RESULT: Not fulfilled

QUERY: State whether the measured protein stability index reaches 2, counting equality as reaching it, for "E13A"
RESULT: Not fulfilled

QUERY: State whether the measured protein stability index reaches 2, counting equality as reaching it, for "A8G"
RESULT: Not fulfilled

QUERY: State whether the measured protein stability index reaches 2, counting equality as reaching it, for "F1S"
RESULT: Fulfilled

QUERY: State whether the measured protein stability index reaches 2, counting equality as reaching it, for "A8M"
RESULT: Not fulfilled

QUERY: State whether the measured protein stability index reaches 2, counting equality as reaching it, for "A8W"
RESULT: Fulfilled

QUERY: State whether the measured protein stability index reaches 2, counting equality as reaching it, for "Q24I"
RESULT: Fulfilled

QUERY: State whether the measured protein stability index reaches 2, counting equality as reaching it, for "G4P"
RESULT: Fulfilled

QUERY: State whether the measured protein stability index reaches 2, counting equality as reaching it, for "N19D"
RESULT: Fulfilled

QUERY: State whether the measured protein stability index reaches 2, counting equality as reaching it, for "F5M"
RESULT: Fulfilled

QUERY: State whether the measured protein stability index reaches 2, counting equality as reaching it, for "I22T"
RESULT: Fulfilled

QUERY: State whether the measured protein stability index reaches 2, counting equality as reaching it, for "G4D"
RESULT: Fulfilled

QUERY: State whether the measured protein stability index reaches 2, counting equality as reaching it, for "D15Q"
RESULT: Not fulfilled

QUERY: State whether the measured protein stability index reaches 2, counting equality as reaching it, for "A14W"
RESULT: Not fulfilled

QUERY: State whether the measured protein stability index reaches 2, counting equality as reaching it, for "D15N"
RESULT: Not fulfilled

QUERY: State whether the measured protein stability index reaches 2, counting equality as reaching it, for "T2V"
RESULT: Fulfilled

QUERY: State whether the measured protein stability index reaches 2, counting equality as reaching it, for "G21A"
RESULT: Not fulfilled

QUERY: State whether the measured protein stability index reaches 2, counting equality as reaching it, for "A7N"
RESULT: Not fulfilled

QUERY: State whether the measured protein stability index reaches 2, counting equality as reaching it, for "G4A"
RESULT: Not fulfilled

QUERY: State whether the measured protein stability index reaches 2, counting equality as reaching it, for "A14E"
RESULT: Fulfilled

QUERY: State whether the measured protein stability index reaches 2, counting equality as reaching it, for "T2P"
RESULT: Fulfilled

QUERY: State whether the measured protein stability index reaches 2, counting equality as reaching it, for "A8V"
RESULT: Fulfilled

QUERY: State whether the measured protein stability index reaches 2, counting equality as reaching it, for "D11G"
RESULT: Fulfilled

QUERY: State whether the measured protein stability index reaches 2, counting equality as reaching it, for "Q24V"
RESULT: Not fulfilled

QUERY: State whether the measured protein stability index reaches 2, counting equality as reaching it, for "N20P"
RESULT: Fulfilled

QUERY: State whether the measured protein stability index reaches 2, counting equality as reaching it, for "D11R"
RESULT: Fulfilled

QUERY: State whether the measured protein stability index reaches 2, counting equality as reaching it, for "L10F"
RESULT: Fulfilled

Reference for the values: the supplement of paper PMC10567573
